# Tested on: U251 CNS
Select the matching outcome among active, inactive

compound: CCCCCCCC(=O)[O][Hg][CH2]C1COC([CH2][Hg][O]C(=O)CCCCCCC)CO1 (stereo not drawn)
label: inactive
--
compound: CC1=C([Se]CC(OC(=O)[C@@H](CO)NC(=O)OC(C)(C)C)C(=O)NCCCCCC(=O)OCc2ccccc2)C(=O)c2ccccc2C1=O (stereo partly drawn)
label: inactive
--
compound: COc1cnc2c(c1)C(=O)c1c-2n(CCCN2CCNCC2)c(=O)c2cc([N+](=O)[O-])ccc12
label: active

IN: Assay outcome for COc1cccc(Nc2nccc(-c3cnn4ncccc34)n2)c1 : what was it?
OUT: active

IN: Now the compound COc1ccc(OC)c(/C=C/c2nc(SCc3ccccc3)n(-c3ccc(Cl)cc3)n2)c1
OUT: inactive

IN: Now the compound COC(=O)[C@]12CC[C@@H](C)[C@H](C)[C@@H]1C1=CC[C@@H]3[C@@]4(C)C(C=O)=C[C@@](C)(COC(=O)/C=C/c5ccccc5)[C@@H]4[C@H](O)C[C@@]3(C)[C@]1(C)CC2
OUT: inactive

IN: Now the compound COc1cc(/C=C/C(=O)c2c(C)nc3ccccc3c2C)ccc1OCCCN1CCN(C(=O)c2ccco2)CC1
OUT: inactive

IN: Now the compound CCn1ccc(NS(=O)(=O)c2ccc(N)cc2)nc1=O
OUT: inactive

Values from PubChem BioAssay (NCI)
